# protocol-description: Oral bioavailability in Wistar Han rat at 3 mg/kg measured up to 24 hrs by LC-MS/MS analysis
# Format: ADME, organism-based
# condition-notes: in vivo
measurement-kind: bioavailability (%)
All answers are understood in %, so give the number only.

Report bioavailability for CNC(=O)[C@H](C1CCOCC1)N(CC(c1ccccc1)c1ccccn1)C(=O)c1cc(C)c(=O)n(C)c1 (stereo in doubt)
16

---

Known logD of a selection of molecules
# protocol-description: physchem
# condition-notes: buffer, pH 7.4, logD
# answer = number (no unit)

As a guide, the following entries are already answered.
Please give measured logD of the following entry: CNC(=O)CN(CC(CC1CCOCC1)c1ccccc1)C(=O)c1cc(C)c(=O)n(C)c1 (stereo not drawn)
2.4

Input CNC(=O)C(C)N(CC(c1ccccc1)c1ccccc1)C(=O)c1cc(OC)c(=O)n(C)c1 (stereo not drawn) , output reported logD.
3.3

More entries:
Give the value of logD reported for the following: CNC(=O)CN(CC(c1ccccc1)C(C)C)C(=O)c1cc(C)c(=O)n(C)c1 (stereo not drawn)
3.3

---

// values below are reported logD
# protocol-description: physchem
# condition-notes: buffer, pH 7.4, logD
Respond with the number and no other words.

Consider the worked cases shown below.
Using known records, supply logD for CNC(=O)CN(CC(c1ccccc1)C1CCOCC1)C(=O)c1cc(C)c(=O)n(C)c1 (centres undefined)
2.1

Identify measured logD associated with CNC(=O)CN(CC(c1ccccc1)n1ccnc1)C(=O)c1cc(C)c(=O)n(C)c1 (centres undefined)
1.45

Let me know recorded logD for Cc1cc(C(=O)N(CC(c2ccccc2)c2ccccc2)C(C)C2CCCO2)cn(C)c1=O (centres undefined) , thanks.
5.1

Fill in reported logD for this entry: CCNC(=O)C(C)N(CC(c1ccccc1)c1ccccc1)C(=O)c1c[nH]c(=O)c(C)c1 (centres undefined)
3.6

Answer with the recorded logD of CNC(=O)C(N(CC(c1ccccc1)c1ccccc1)C(=O)c1cc(C)c(=O)n(C)c1)C(C)(C)C (centres undefined) only.
5.4

For COCC(COC)N(CC(c1ccccc1)c1ccccc1)C(=O)c1cc(C)c(=O)n(C)c1 , write its logD.
5.5

---
Identify logD associated with the compound Cc1cc(C(=O)N(CC(N)=O)CC(c2ccccc2)c2ccccc2)cn(C)c1=O
2.9

Output logD of CNC(=O)C(C)N(CC(c1ccccc1)c1cccnc1)C(=O)c1cc(C)c(=O)n(C)c1 (centres undefined)
1.9

---

# protocol-description: AUC (0 to infinity) in Wistar Han rat at 3 mg/kg, po measured up to 24 hrs by LC-MS/MS analysis
# Assay type: ADME, organism-based
# Parameters: route oral, dose 3 mg/kg, time <=24
# condition-notes: in vivo
measurement-kind: AUC(0-inf) (ng·h/mL)
Field format: number, assumed ng·h/mL, no unit text.

Please supply the value of reported AUC(0-inf) for the item CNC(=O)[C@H](C1CCOCC1)N(CC(c1ccccc1)c1ccccn1)C(=O)c1cc(C)c(=O)n(C)c1 (stereo in doubt)
162

---

# protocol-description: physchem
measurement-kind: solubility

Answer with reported solubility of Cc1cc(C(=O)N(CC(c2ccccc2)c2ccccc2)C(C)C#N)cn(C)c1=O (centres undefined)
> 157 µg/mL

Query solubility for CCNC(=O)C(C)N(CC(c1ccccc1)c1ccccc1)C(=O)c1c[nH]c(=O)c(C)c1 (centres undefined)
> 170 µg/mL

Supply recorded solubility for CNC(=O)C1(N(CC(c2ccccc2)c2ccccc2)C(=O)c2cc(C)c(=O)n(C)c2)CC1 here.
> 194 µg/mL

Write down solubility measured for item CNC(=O)C(C)(C)N(CC(c1ccccc1)c1ccccc1)C(=O)c1cc(C)c(=O)n(C)c1
> 242 µg/mL

---

The molecules listed here are annotated with their logD.
# protocol-description: physchem
# condition-notes: buffer, pH 7.4, logD
// keep it numeric: no unit symbol after the value

Recorded logD, per entry:
// fetch logD given entry CNC(=O)C(C)N(CC(O)(c1ccccc1)c1ccccc1)C(=O)c1cc(C)c(=O)n(C)c1 (stereo not given)
2.9

Please give the documented logD of CNC(=O)C(C(C)C)N(CC(c1ccccc1)c1ccccc1)C(=O)c1cc(C)c(=O)n(C)c1 (stereo not given)
4.9

Indicate the recorded logD value for this molecule: CNC(=O)C(C1CCOC1)N(CC(c1ccccc1)c1ccccc1)C(=O)c1cc(C)c(=O)n(C)c1 (racemic)
4

Note logD for the molecule shown: CNC(=O)[C@H](C1CCOCC1)N(CC(c1ccccc1)c1ccccn1)C(=O)c1cc(C)c(=O)n(C)c1 (stereo in doubt; 62)
2.8

Further cases:
Provide one value: measured logD of Cc1cc(C(=O)N(CC(c2ccccc2)c2ccccc2)C(C)CN2CCOCC2)cn(C)c1=O (stereo not given)
5.4

---

# protocol-description: physchem
molecules and their reported solubility
Answer with a number only, understood to be in µg/mL.

Give solubility for CNC(=O)C(C)N(CC(c1ccccc1)c1ccccc1)C(=O)c1cc(OC)c(=O)n(C)c1 (centres undefined)
111

New cases:
Indicate the recorded solubility value for this molecule: CNC(=O)CN(CC(c1ccccc1)c1ccccc1)C(=O)c1cc(C)c(OC)c(C)c1
114

---

# protocol-description: physchem
# condition-notes: buffer, pH 7.4, logD
# note: exactly 3 is not below, so it is condition not met; use condition met for logD strictly under it

These solved cases illustrate the format of a correct answer.
Does the reported logD of CNC(=O)[C@@H](C1CCOCC1)N(CC(c1ccccc1)c1ccccn1)C(=O)c1cc(C)c(=O)n(C)c1 (stereo in doubt; 61) stay below 3?
condition met

Hello, I'm reviewing records and need to know if logD of CNC(=O)C(C)N(CC(c1ccccc1)c1ccccn1)C(=O)c1cc(C)c(=O)n(C)c1 (stereo in doubt; 50) is below 3. Could you check?
condition met

Check if logD falls below 3 for CNC(=O)CN(CC(C)c1ccccc1)C(=O)c1cc(C)c(=O)n(C)c1 (configuration not stated) .
condition met

More entries:
For CCOC(CN(CC(=O)NC)C(=O)c1cc(C)c(=O)n(C)c1)c1ccccc1 (configuration not stated) , is the recorded logD below the cut-off of 3?
condition met

Just wondering, is logD of CNC(=O)C(C)N(CC(c1ccccc1)c1ccccc1)C(=O)c1cc(C)c(=O)n(C)c1 (configuration not stated) below 3?
condition not met

Does the reported logD of CNC(=O)C(C1CCC1)N(CC(c1ccccc1)c1ccccc1)C(=O)c1cc(C)c(=O)n(C)c1 (configuration not stated) stay below 3?
condition not met

Bench note: check whether CNC(=O)CN(CC(c1ccccc1)c1ccccc1)C(=O)c1cc(C)c(=O)n(C)c1 shows logD below 3
condition not met

---

# protocol-description: physchem
# condition-notes: FaSSIF, pH 6.5
Here the recorded solubility at 16 h is given for each entry.

Given the molecule Cc1cc(C(=O)N(CC(c2ccccc2)c2ccccc2)C(C)C2CCCO2)cn(C)c1=O (centres undefined) , write its reported solubility at 16 h.
21 µg/mL

Fill in reported solubility at 16 h for this entry: CNC(=O)C1(N(CC(c2ccccc2)c2ccccc2)C(=O)c2cc(C)c(=O)n(C)c2)CC1
819 µg/mL

Identify the reported solubility at 16 h for the following entry. CNC(=O)C(N(CC(c1ccccc1)c1ccccc1)C(=O)c1cc(C)c(=O)n(C)c1)C(C)(C)C (centres undefined)
2 µg/mL

***
// fetch solubility at 16 h given entry Cc1cc(C(=O)N(CC(c2ccccc2)c2ccccc2)C(C)CN2CCOCC2)cn(C)c1=O (centres undefined)
91 µg/mL

Indicate its recorded solubility at 16 h; the molecule in question is CNC(=O)[C@H](C1CCOCC1)N(CC(c1ccccc1)c1ccccn1)C(=O)c1cc(C)c(=O)n(C)c1 (stereo in doubt)
> 1000 µg/mL

Please give measured solubility at 16 h of the following entry: COCC(COC)N(CC(c1ccccc1)c1ccccc1)C(=O)c1cc(C)c(=O)n(C)c1
78 µg/mL

Give reported solubility at 16 h value for CNC(=O)C(C(C)C)N(CC(c1ccccc1)c1ccccc1)C(=O)c1cc(C)c(=O)n(C)c1 (centres undefined)
60 µg/mL

Give a short answer stating reported solubility at 16 h for CNC(=O)C(C)N(CC(c1ccccc1)c1ccccc1)C(=O)c1cc(OC)c(=O)n(C)c1 (centres undefined) .
661 µg/mL

Using known records, supply solubility at 16 h for CNC(=O)C1(N(CC(c2ccccc2)c2ccccc2)C(=O)c2cc(C)c(=O)n(C)c2)CCCC1
132 µg/mL

---

Below, each entry is listed alongside its reported logD.
# protocol-description: physchem
# condition-notes: buffer, pH 7.4, logD
Just the number, please, no unit attached.

Please give the documented logD of CNC(=O)C(C)N(CC(c1ccccc1)c1ccncc1)C(=O)c1cc(C)c(=O)n(C)c1 (stereo unspecified)
1.7

Indicate its recorded logD; the compound in question is CCC(CN(CC(=O)NC)C(=O)c1cc(C)c(=O)n(C)c1)c1ccccc1 (stereo unspecified)
2.8

Could you please provide reported logD for CNC(=O)CN(CC(c1ccccc1)c1ccccc1)C(=O)c1cc(C)c(OC)c(C)c1 ? Thanks!
5.7

Continuing:
Return logD for the following compound: CCC(C(=O)NC)N(CC(c1ccccc1)c1ccccc1)C(=O)c1cc(C)c(=O)n(C)c1 (stereo unspecified)
4.3

Look up and report measured logD for this entry: CCNC(=O)C(C)N(CC(c1ccccc1)c1ccccc1)C(=O)C1CCC(=O)N(C)C1 (stereo unspecified)
3.9

Provide measured logD value, entry: CNC(=O)C(C1CC1)N(CC(c1ccccc1)c1ccccc1)C(=O)c1cc(C)c(=O)n(C)c1 (stereo unspecified)
4.4

Given the compound Cc1cc(C(=O)N(CC(c2ccccc2)c2ccccc2)C(C)C#N)cn(C)c1=O (stereo unspecified) , write its reported logD.
4.8

Hello, please tell me recorded logD for this one: CNC(=O)C(C1COC1)N(CC(c1ccccc1)c1ccccc1)C(=O)c1cc(C)c(=O)n(C)c1 (stereo unspecified)
3.6
